- RUN CONDITIONS: human gut metagenome, 24 h, 2 µM; further: call rule not given here
MEASURED ATTRIBUTE: Bacterial Biotransformation

- CC(C)c1nc(N(C)S(C)(=O)=O)nc(-c2ccc(F)cc2)c1/C=C/[C@@H](O)C[C@@H](O)CC(=O)[O-].CC(C)c1nc(N(C)S(C)(=O)=O)nc(-c2ccc(F)cc2)c1/C=C/[C@@H](O)C[C@@H](O)CC(=O)[O-].[Ca+2] [ROSUVASTATIN CALCIUM]: Compound metabolized
- COc1ccc(CN2CCNCC2)c(OC)c1OC.Cl.Cl [TRIMETAZIDINE DIHYDROCHLORIDE]: Compound NOT metabolized
- CC(NC(C)(C)C)C(=O)c1cccc(Cl)c1 (stereo not given) [BUPROPION]: Compound metabolized
- COc1cc2nc(N3CCN(C(=O)C4CCCO4)CC3)nc(N)c2cc1OC (stereo not given) [TERAZOSIN]: Compound NOT metabolized
- Cc1cc(C)cc(OCC2CNC(=O)O2)c1 (stereo not given) [METAXALONE]: Compound metabolized
